biological target: CD28 (human) (UniProt P10747); experiment: flow cytometry, Jurkat cells (CD28)
PROPERTY_MEASURED: Fold change to WT (fold)
Numbers only here, please. The scale is fold.

Looking up CD80 variant A26E/Q33L/E35D/M47L IgV-Fc (Fc fusion) VIHVTKEVKEVATLSCGHNVSVEELEQTRIYWLKDKKMVLTMMSGDLNIWPEYKNRTIFDITNNLSIVILALRPSDEGTYECVVLKYEKDAFKREHLAEVT , I found its Fold change to WT recorded as 0.04

Looking up CD80 variant V22A/E35D/V68E/A71D IgV-Fc (Fc fusion) VIHVTKEVKEVATLSCGHNVSAEELAQTRIYWQKDKKMVLTMMSGDMNIWPEYKNRTIFDITNNLSIEILDLRPSDEGTYECVVLKYEKDAFKREHLAEVT , I found its Fold change to WT recorded as 1.83

Looking up CD80 variant Q33L/E35D/M47L/V68M/L85Q/E88D IgV-Fc (Fc fusion) VIHVTKEVKEVATLSCGHNVSVEELAQTRIYWLKDKKMVLTMMSGDLNIWPEYKNRTIFDITNNLSIMILALRPSDEGTYECVVQKYDKDAFKREHLAEVT , I found its Fold change to WT recorded as 0.03

Looking up CD80 variant E35D/M47V/A71G/L85M/L97Q IgV-Fc (Fc fusion) VIHVTKEVKEVATLSCGHNVSVEELAQTRIYWQKDKKMVLTMMSGDVNIWPEYKNRTIFDITNNLSIVILGLRPSDEGTYECVVMKYEKDAFKREHQAEVT , I found its Fold change to WT recorded as 0.04
